Biological target: GlcA3S(b1-3)Gal(b1-4)GlcNAc(b1-3)Gal(b1-4)Glc
Test: glycan array binding signal (z-score within array); higher = stronger binding
Conditions: glycan notation: IUPAC condensed, linker removed
About 410 targets per protein were measured; listed, in parts, are those with the strongest signals and a random draw of the rest.

BINDER | glycan array binding signal (z-score)
TAL6-4LysM (Trichoderma atroviride) (protein) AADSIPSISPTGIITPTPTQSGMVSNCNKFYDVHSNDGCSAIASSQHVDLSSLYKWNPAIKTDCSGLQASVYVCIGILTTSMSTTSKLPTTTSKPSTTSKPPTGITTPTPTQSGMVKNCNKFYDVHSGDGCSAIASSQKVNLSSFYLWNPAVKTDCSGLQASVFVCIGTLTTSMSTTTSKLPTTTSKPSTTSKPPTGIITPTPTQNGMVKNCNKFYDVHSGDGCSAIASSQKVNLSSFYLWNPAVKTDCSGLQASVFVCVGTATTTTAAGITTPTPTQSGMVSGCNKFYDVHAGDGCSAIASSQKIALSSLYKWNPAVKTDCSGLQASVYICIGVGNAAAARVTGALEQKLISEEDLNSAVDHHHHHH | 1.02
CLEC5A (Homo sapiens), Q9NY25 (protein) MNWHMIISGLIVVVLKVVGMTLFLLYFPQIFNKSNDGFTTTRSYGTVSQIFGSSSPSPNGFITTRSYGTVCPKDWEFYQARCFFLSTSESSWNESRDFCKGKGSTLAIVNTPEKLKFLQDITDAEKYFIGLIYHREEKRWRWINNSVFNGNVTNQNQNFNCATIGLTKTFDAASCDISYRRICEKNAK | -0.074
